experiment: qHTS assay for measurement of the activity of small molecule inhibitors on Zika virus induced Caspase-3 activity in human astrocytoma cells (AID 1224859); conditions: SNB-19 ZIKV-induced caspase-3/7, luminescence, 6 h; series mostly up to 45.7 µM
Activity calls are given as the source filed them. Calls come from the whole dose curve; as a rule, active = well fitted inhibition curve with a large enough effect; inconclusive = small, poorly fitted or top-dose-only effect; inactive = no such curve, though single readings can be large or run the other way.
The reply should name one outcome from active, inactive

Examples with answers:
[[record]]
compound = "CC1=C(CO)C(=O)O[C@@H]([C@@H](C)[C@H]2CC[C@H]3[C@@H]4C[C@H]5O[C@]56[C@@H](O)C=CC(=O)[C@]6(C)[C@@H]4CC[C@]23C)C1"
class = "inactive"

[[record]]
compound = "O=C(Cc1ccc(-c2ccc(OCCN3CCOCC3)cc2)cn1)NCc1ccccc1"
class = "inactive"

[[record]]
compound = "CC[C@@H]1C(=O)N(C)c2cnc(Nc3ccc(C(=O)NC4CCC(N5CCN(CC6CC6)CC5)CC4)cc3OC)nc2N1C(C)C (stereo partly drawn)"
class = "inactive"

[[record]]
compound = "Clc1cccc(-n2nnnc2NCc2ccccc2Oc2ccccn2)c1Cl"
class = "inactive"

[[record]]
compound = "COc1cc2c(Oc3ccc4[nH]c(C)cc4c3F)ncnc2cc1OCCCN1CCCC1"
class = "inactive"


Data request: How did this test come out for CC(C)[C@H](C(=O)Nc1ccc(C(=O)NO)cc1)c1ccccc1 ?
Data returned: inactive

Data request: Same question for Cc1cc(N2CCOCC2)cc2[nH]c(-c3c(NC[C@@H](O)c4cccc(Cl)c4)cc[nH]c3=O)nc12 please.
Data returned: inactive

Data request: Same question for Cc1nc2ccc(CN(C)c3ccc(C(=O)N[C@@H](CCC(=O)O)C(=O)O)s3)cc2c(=O)[nH]1 please.
Data returned: inactive

Data request: Same question for O=C(NCCCNc1nc(Nc2cccc(NC(=O)N3CCCC3)c2)ncc1I)c1cccs1 please.
Data returned: inactive

Data request: Same question for O=C(NCCS(=O)(=O)c1ccc(C(F)(F)F)cn1)c1ccc(Cl)cc1 please.
Data returned: inactive

Data request: Same question for C=CC(=O)Nc1cccc(Oc2nc(Nc3ccc(N4CCN(C)CC4)cc3)ncc2Cl)c1 please.
Data returned: inactive

Data request: Same question for c1ccc2c(CCNc3ccc(Nc4ccncc4)cc3)c[nH]c2c1 please.
Data returned: inactive

Data request: Same question for CCn1cc(-c2ccnc3[nH]c(-c4cccc(CN(C)C)c4)cc23)c(-c2ccc(NC(=O)N(C)C)cc2)n1 please.
Data returned: inactive

Data request: Same question for C=CC(=O)Nc1cc2c(Nc3ccc(F)c(Cl)c3)ncnc2cc1OCCCN1CCOCC1 please.
Data returned: inactive

Data request: Same question for CS(=O)(=O)N1CCN(Cc2cc3nc(-c4cccc5[nH]ncc45)nc(N4CCOCC4)c3s2)CC1 please.
Data returned: inactive

Data request: Same question for Cc1cn2c(-c3cn[nH]c3)cnc2c(Nc2ccc(C(=O)N3CCNCC3)cc2F)n1 please.
Data returned: inactive

Data request: Same question for CC[C@@]1(O)C(=O)OCc2c1cc1n(c2=O)Cc2cc3cc(O)ccc3nc2-1 please.
Data returned: inactive

Data request: Same question for CC(C)(C)c1cc(C(C)(C)C)c(NC(=O)c2c[nH]c3ccccc3c2=O)cc1O please.
Data returned: inactive

Data request: Same question for CC(C)(C)c1cc(NC(=O)Nc2ccc(-c3cn4c(n3)sc3cc(OCCN5CCOCC5)ccc34)cc2)no1 please.
Data returned: inactive

Data request: Same question for CNC(=O)c1ccc(-c2cnc3ncc(Cc4ccc5ncccc5c4)n3n2)cc1F please.
Data returned: inactive

Data request: Same question for COC(=O)Nc1nc2ccc(C(=O)c3ccc(F)cc3)cc2[nH]1 please.
Data returned: inactive

Data request: Same question for Nc1ncnc2c1c(-c1cnc3[nH]ccc3c1)nn2C1CCCC1 please.
Data returned: inactive

Data request: Same question for COc1ccc(F)c(F)c1C(=O)c1cnc(NC2CCN(S(C)(=O)=O)CC2)nc1N please.
Data returned: inactive

Data request: Same question for CN[C@H]1CCc2cc(OC)c(OC)c(OC)c2-c2ccc(OC)c(=O)cc21 please.
Data returned: inactive

Data request: Same question for Cc1nc2cnc3ccc(C#Cc4cccnc4)cc3c2n1-c1ccc(C(C)(C)C#N)cc1 please.
Data returned: inactive

Data request: Same question for COc1cccc2c(NCc3ccccc3)nc(-n3c(N)nc4ccccc43)nc12 please.
Data returned: inactive
